- MEASUREMENT TARGET: T1, recombinant canine Nerve Growth Factor (Canis lupus familiaris NGF) (canine (Canis lupus familiaris), UniProt Q29074 110-229 (pig entry), limits assumed)
- T1 construct: also called canine NGF; Dog NGF
- T1 chain: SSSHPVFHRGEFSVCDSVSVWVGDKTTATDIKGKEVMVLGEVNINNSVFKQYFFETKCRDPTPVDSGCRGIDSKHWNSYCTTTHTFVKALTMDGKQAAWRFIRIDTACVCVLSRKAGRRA
- ASSAY SUMMARY: SPR, Biacore T100, dog NGF; run 11/24; comment 'Agg?'
PROPERTY MEASURED: pKd
# reply with the number alone; pKd is -log10 of concentration in mol/L

binder="LTM construct 112 (HC Y101W, G103A; LC D28S, NH31HN, K92D) (antibody, V domains shown, Point mutant of canE3M65 as full IgG) VH: EVQLVESGGDLARPGGSLKLSCVVSGFSLIGYDINWVRQAPGKGLQWVTMIWGDGTTDYNSALKSRFTVSRDNAMNTVYLQMNSLRVEDTAVYYCARGGYWYATSYYFDYWGQGTLVTVSS VL: DIVMTQTPLSLSVSPGETASISCRASQSISHNLNWFRQKPGQSPQRLIYYISRFHSGVPDRFSGSGSGTDFTLRISRVEADDTGVYYCQQSDTLPYTFGAGTKLEIK" property_measured=pKd recorded_result=11.78

Now take the following binder into account.
pKd recorded for this binder, LTM construct 111 (HC Y101W, G103A; LC *D28S, NH31HN, S91Y) (antibody, V domains shown, The '*' is not explained) VH: EVQLVESGGDLARPGGSLKLSCVVSGFSLIGYDINWVRQAPGKGLQWVTMIWGDGTTDYNSALKSRFTVSRDNAMNTVYLQMNSLRVEDTAVYYCARGGYWYATSYYFDYWGQGTLVTVSS VL: DIVMTQTPLSLSVSPGETASISCRASQSISHNLNWFRQKPGQSPQRLIYYISRFHSGVPDRFSGSGSGTDFTLRISRVEADDTGVYYCQQYKTLPYTFGAGTKLEIK , is 9.84
